system: Fra a 2 (Fragaria x ananassa, UniProt D0E0C6)
Sequence (D0E0C6 whole entry): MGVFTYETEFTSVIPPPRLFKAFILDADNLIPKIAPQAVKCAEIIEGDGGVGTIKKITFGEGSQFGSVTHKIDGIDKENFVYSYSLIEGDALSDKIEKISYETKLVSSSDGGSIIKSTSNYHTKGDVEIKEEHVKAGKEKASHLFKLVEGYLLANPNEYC
readout: pKd
In textbook form, pKd equals minus log to base ten of the concentration in mol/L.

Simply: O=c1c(O)c(-c2cc(O)c(O)c(O)c2)oc2cc(O)cc(O)c12 , Fra a 2 (Fragaria x ananassa, UniProt D0E0C6), pKd = 4.71

----------
system: Fra a 1E (Fragaria x ananassa, UniProt Q256S2)
Sequence (Q256S2 whole entry): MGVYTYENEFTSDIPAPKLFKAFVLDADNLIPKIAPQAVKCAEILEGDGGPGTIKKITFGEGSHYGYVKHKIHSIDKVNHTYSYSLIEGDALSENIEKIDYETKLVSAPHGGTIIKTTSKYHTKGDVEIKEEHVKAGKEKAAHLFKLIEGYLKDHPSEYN
readout: Kd (µM)
Give the value, in units of µM, as a plain number.

Fra a 1E (Fragaria x ananassa, UniProt Q256S2) assay, compound O=C(O)[C@H]1O[C@@H](Oc2c(-c3ccc(O)c(O)c3)oc3cc(O)cc(O)c3c2=O)[C@H](O)[C@@H](O)[C@@H]1O [Quercetin-3-O-glucuronide] , recorded Kd = 5.3
